Values were extracted from PubChem BioAssay (NCI).

# Tested on: A498 renal
# ASSAY_REMARKS: NCI tumour cell line growth inhibition, 48 h
Measured TGI values are reported for all entries that follow.

A selection of reference data follows.
INSERT INTO measurements (compound, reported_measurement) VALUES
  ('Cc1ccc2nnc(NS(=O)(=O)c3cc(C)c(Cl)cc3S)n2n1', '> 100 µM'),
  ('CCOc1ccccc1NC(=O)C(=O)c1c(O)c2ccc(O)cc2oc1=O', '> 100 µM'),
  ('CN1CCN(Cc2ccc(NC(=O)c3cncc(C#Cc4ncc5ccccn45)c3)cc2C(F)(F)F)CC1', '5.96 µM'),
  ('CC(C)CC1NC(=O)C(C(C)C)NC(=O)CC(C)COC(=O)C(CC(C)C)N(C)C(=O)C(C(C)C)NC(=O)C(C(C)C)OC1=O (stereo not given)', '> 50 µM');

Item `NC(=O)N=Nc1c2ccccc2n2[nH]ccc12` was tested on A498 renal; the reported TGI is > 100 µM

* * *

# Tested on: CCRF-CEM leukemia
# ASSAY_REMARKS: NCI tumour cell line growth inhibition, 48 h; in the data active = GI50 below about 0.43 µM; inactive = the rest
Where a SMILES comes first, the peptide text is derived from it. [ ]: non-standard residue; d: D form. The star is where a group is joined. ξ: configuration not given here. dIva = CC[C@@](C)(N)C(=O)O; Aib = CC(C)(N)C(=O)O; ξP = O=C(O)C1CCCN1; βAla = NCCC(=O)O; X5 = OCN*
Form entry, call: pick from active, inactive

INSERT INTO results (compound, assigned_class) VALUES
  ('O=C1/C(=C/c2cccc(F)c2)CN(C(=O)C(Cl)Cl)C/C1=C\c1cccc(F)c1', 'active');

Query :: # lookup: test call for CC[C@@](C)(NC(=O)[C@H](C)NC(=O)CCNC(=O)C(C)(C)NC(=O)[C@H](C)NC(=O)[C@@H]1CCCN1C(=O)[C@@](C)(CC)NC(=O)[C@H](Cc1ccccc1)NC(=O)C1CCCN1C(=O)C(C)(C)NC(=O)C1CCCN1C(=O)C(C)(C)NC(C)=O)C(=O)NCCC(=O)N[C@@H](CC(C)C)C(=O)NC(C)(C)C(=O)NCCC(=O)N[C@@H](CC(C)C)C(=O)NC(C)(C)C(=O)NC(C)(C)C(=O)N[C@@H](CC(C)C)C(=O)NCCC(=O)NCO (stereo partly drawn) (Ac-[Aib][ξP][Aib][ξP]F[dIva]PA[Aib][βAla]A[dIva][βAla]L[Aib][βAla]L[Aib][Aib]L[βAla]-X5)
Result :: active

Query :: How did this test come out for `COc1ccc(-c2c(C#N)cnc(N)c2-c2nc3cc(C)c(C)cc3[nH]2)cc1` ?
Result :: inactive

* * *

# Test system: SK-MEL-2 melanoma
# ASSAY_REMARKS: NCI tumour cell line growth inhibition, 48 h
Collected TGI values appear next to each entry.

// field: TGI; key: CC(C)CC1NC(=O)C(C(C)C)NC(=O)CC(C)COC(=O)C(CC(C)C)N(C)C(=O)C(C(C)C)NC(=O)C(C(C)C)OC1=O (stereo unspecified) ; value = > 50 µM

* * *

Measured TGI, listed per entry for reference.
# Tested on: K-562 leukemia
# ASSAY_REMARKS: NCI tumour cell line growth inhibition, 48 h

A selection of reference data follows.
INSERT INTO results (compound, system_tested, reported_measurement) VALUES
  ('COC(=O)[C@]1(C)CC[C@]2(C)CC[C@]3(C)C(=CC(=O)[C@@H]4[C@@]5(C)CCC(=O)NC(C)(C)[C@@H]5CC[C@]43C)[C@@H]2C1', 'K-562 leukemia', '66.5 µM'),
  ('CC(=O)CC(=O)ON(C)C(=O)Cc1ccccc1', 'K-562 leukemia', '> 100 µM'),
  ('CC(=O)Nc1ccc2c3c(cc(O)c2c1)N(C(=O)CCCCCC(=O)Nc1ccc2c4c(cc(O)c2c1)N(C(=O)OC(C)(C)C)CC4CCl)CC3CCl (stereo not given)', 'K-562 leukemia', '> 100 µM'),
  ('Cc1ccc2nnc(NS(=O)(=O)c3cc(C)c(Cl)cc3S)n2n1', 'K-562 leukemia', '> 100 µM');

Form field, TGI with K-562 leukemia, item C1COCCOP2(N3CC3)=NP(N3CC3)(=NP(N3CC3)(N3CC3)=N2)OCCOCCO1 (stereo not given) : > 100 µM
